Biological target: T1, 4H3365-AA
T1 chain: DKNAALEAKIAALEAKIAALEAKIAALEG
Experiment: two-hybrid library CCmax;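 further: natural log of median RNA to DNA barcode read ratio; higher means stronger binding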
Settings: mean of both orientations
Assign interaction score to each entry below.
One number for each entry.

Known interaction score results, listed for orientation:
| BINDER | interaction score |
| --- | --- |
| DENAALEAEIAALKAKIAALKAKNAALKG [4H1136-AA] | -1.36 |
| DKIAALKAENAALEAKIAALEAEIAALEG [4H2721-AA] | -1.58 |

Look at this binder and give its reported interaction score. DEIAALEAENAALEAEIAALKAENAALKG [4H140-AA]
-1.08
